target: F508del-CFTR (Homo sapiens, UniProt P13569, DEL508-508); construct: expressed in transfected cells; experiment: Membrane potential optical (FLIPR) assay for F508del-CFTR modulators in NIH 3T3 cells; assay type: cell-based; conditions: assay A1; read-out: EC50
Sequence (P13569 with tags, fused parts or gaps DEL508-508): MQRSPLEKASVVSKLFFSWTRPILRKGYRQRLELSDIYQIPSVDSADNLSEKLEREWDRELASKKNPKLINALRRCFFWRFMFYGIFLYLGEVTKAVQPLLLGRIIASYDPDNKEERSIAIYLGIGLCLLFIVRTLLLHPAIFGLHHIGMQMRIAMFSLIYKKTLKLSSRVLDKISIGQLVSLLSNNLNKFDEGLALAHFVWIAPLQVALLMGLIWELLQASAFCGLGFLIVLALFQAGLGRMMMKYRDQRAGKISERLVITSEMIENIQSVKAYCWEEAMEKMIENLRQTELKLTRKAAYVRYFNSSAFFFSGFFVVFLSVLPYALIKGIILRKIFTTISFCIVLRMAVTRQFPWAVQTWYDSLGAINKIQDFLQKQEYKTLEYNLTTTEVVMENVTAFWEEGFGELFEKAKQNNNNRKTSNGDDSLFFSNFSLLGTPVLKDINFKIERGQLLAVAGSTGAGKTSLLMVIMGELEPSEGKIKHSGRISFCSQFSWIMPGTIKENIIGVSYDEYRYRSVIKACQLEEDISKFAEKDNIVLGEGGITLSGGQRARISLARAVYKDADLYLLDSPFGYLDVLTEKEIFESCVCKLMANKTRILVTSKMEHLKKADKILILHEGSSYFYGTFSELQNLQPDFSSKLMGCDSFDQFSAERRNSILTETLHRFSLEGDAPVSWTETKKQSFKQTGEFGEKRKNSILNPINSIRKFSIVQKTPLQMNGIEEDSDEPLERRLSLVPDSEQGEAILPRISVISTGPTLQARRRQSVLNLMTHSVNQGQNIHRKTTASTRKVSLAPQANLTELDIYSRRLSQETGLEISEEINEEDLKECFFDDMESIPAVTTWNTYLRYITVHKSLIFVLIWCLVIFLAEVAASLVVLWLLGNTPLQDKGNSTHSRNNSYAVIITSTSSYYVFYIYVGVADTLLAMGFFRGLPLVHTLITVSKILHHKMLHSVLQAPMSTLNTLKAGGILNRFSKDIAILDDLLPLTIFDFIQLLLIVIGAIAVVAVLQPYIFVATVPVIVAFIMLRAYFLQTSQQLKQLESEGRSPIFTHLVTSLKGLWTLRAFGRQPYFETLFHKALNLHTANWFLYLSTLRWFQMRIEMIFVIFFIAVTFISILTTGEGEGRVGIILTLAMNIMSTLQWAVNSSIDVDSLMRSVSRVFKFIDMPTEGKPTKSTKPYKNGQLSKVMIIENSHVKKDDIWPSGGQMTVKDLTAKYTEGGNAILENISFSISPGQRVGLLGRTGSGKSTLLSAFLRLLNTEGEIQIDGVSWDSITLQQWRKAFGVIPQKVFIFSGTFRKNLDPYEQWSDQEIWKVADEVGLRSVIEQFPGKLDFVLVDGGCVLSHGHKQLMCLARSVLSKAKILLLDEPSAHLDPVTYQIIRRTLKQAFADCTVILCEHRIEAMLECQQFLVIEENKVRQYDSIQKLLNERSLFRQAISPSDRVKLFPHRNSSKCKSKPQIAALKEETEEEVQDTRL
pEC50: −log10 of the molar value.
measured-quantity: pEC50

Prompt: Consider the molecule Cc1nn(C)cc1S(=O)(=O)NC(=O)c1ccc(-n2ccc(OCC(C)(C)C(F)(F)F)n2)nc1N1C[C@@H](C)CC1(C)C and give its recorded pEC50.
Completion: > 5.52

###

biological target: human PXR (Homo sapiens, UniProt O75469); construct: host or cells: DPX-2 cell line (derived from HepG2); experiment: PXR assay: PXR mediated CYP3A4 induction in DPX-2 cell line; type: cell-based; settings: DPX-2 cells
Sequence (O75469 whole entry): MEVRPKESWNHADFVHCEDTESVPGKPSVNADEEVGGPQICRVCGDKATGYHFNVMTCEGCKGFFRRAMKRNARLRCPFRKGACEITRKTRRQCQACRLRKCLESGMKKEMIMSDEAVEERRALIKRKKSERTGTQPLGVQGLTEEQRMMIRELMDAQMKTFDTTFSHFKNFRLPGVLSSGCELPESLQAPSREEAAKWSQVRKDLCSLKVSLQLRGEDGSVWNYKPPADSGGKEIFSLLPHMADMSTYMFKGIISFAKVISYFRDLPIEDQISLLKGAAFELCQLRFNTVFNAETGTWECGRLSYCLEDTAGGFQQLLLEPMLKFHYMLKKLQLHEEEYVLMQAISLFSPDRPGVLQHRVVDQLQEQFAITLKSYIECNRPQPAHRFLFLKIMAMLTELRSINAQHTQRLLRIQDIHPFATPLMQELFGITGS
measured-quantity: CYP3A4 Induction-PXR human PXR internal Max % Activity (%)
Write the number in % without appending the unit.

Example molecules with recorded CYP3A4 Induction-PXR human PXR internal Max % Activity:
[[record]]
molecule = "Cc1nn(C)cc1S(=O)(=O)NC(=O)c1ccc(-n2ccc(OCCC3C4(CC4)C34CC4)n2)nc1N1C[C@@H](C)CC1(C)C"
measure_unit = "%"
value = 11

[[record]]
molecule = "Cc1nn(C)cc1S(=O)(=O)NC(=O)c1ccc(-n2ccc(OCC3(C(F)(F)F)CC3)n2)nc1N1CC(C)CC1(C)C (stereo not drawn)"
measure_unit = "%"
value = 16

[[record]]
molecule = "C[C@@H]1CN(c2nc(-n3ccc(OCC(C)(C)C)n3)ccc2C(=O)NS(=O)(=O)c2ccccc2)C(C)(C)C1 [C, reference compound]"
measure_unit = "%"
value = 9

[[record]]
molecule = "Cc1nn(C)cc1S(=O)(=O)NC(=O)c1ccc(-n2ccc(OCC3C(C)(C)C3(C)C)n2)nc1N1C[C@@H](C)CC1(C)C"
measure_unit = "%"
value = 4

[[record]]
molecule = "Cc1nn(C)cc1S(=O)(=O)NC(=O)c1ccc(-n2ccc(OCC(C3CC3)C3CC3)n2)nc1N1C[C@@H](C)CC1(C)C"
measure_unit = "%"
value = 5


Read the next record carefully.
Prompt: Give recorded CYP3A4 Induction-PXR human PXR internal Max % Activity. C[C@@H]1CN(c2nc(-n3ccc(OCC4(C(F)(F)F)CC4)n3)ccc2C(=O)NS(=O)(=O)c2cn[nH]c2)C(C)(C)C1
Completion: 0
